Test system: HEL
Assay: Cytotoxicity against human HEL cells after 72 hrs by plate reader analysis
Type: functional, cell-based
measure: pEC50
pEC50 is defined as minus the log10 of a concentration measured in mol/L.

Ask | Report measured pEC50; entry is Cc1cccc(C(=O)Nc2cc(-c3ccc(F)cc3)n[nH]2)c1
Reply | 4.21

Ask | Report measured pEC50; entry is Fc1ccc(-c2n[nH]cc2-c2ccncc2)cc1Cl
Reply | 3.00

Ask | Report measured pEC50; entry is Cc1ccc(-c2cc(NC(=O)c3ccc(F)cc3)[nH]n2)cc1
Reply | 3.00

Ask | Report measured pEC50; entry is Cc1ccc(-n2cnc3cc(Nc4nnc(C)c5ccccc45)ccc32)cc1
Reply | 4.85

Ask | Report measured pEC50; entry is COc1ccc(C(=O)Nc2cc(-c3ccccc3)[nH]n2)cc1
Reply | 4.33
